Test system: Cavia porcellus
experimentNotes: In vivo inhibitory activity against platelet aggregation in guinea pigs
Assay type: functional, organism-based
Catalogue of compounds with associated IC50
quantityName: IC50 (nM)

smi | quantityName | readoutValue
CCCCCCCCCCCCCCCCNC(=O)OC[C@@H]1C[C@@H](COC(=O)N(Cc2cccc[n+]2CC)C(C)=O)S1.[Cl-] | IC50 | 21
CCCCCCCCCCCCCCCCCCNC(=O)OC[C@H]1C[C@H](COC(=O)N(Cc2cccc[n+]2CC)C(C)=O)C1.[I-] | IC50 | 56
CCCCCCCCCCCCCCCCCCNC(=O)OC[C@H]1C[C@H](COC(=O)N(Cc2cccc[n+]2CC)C(C)=O)N1C(C)=O.[Cl-] | IC50 | 29
